Source: patent US9765092B2

Overview of reported pIC50 across a group of compounds:
measured_target: UniProtKB P17752
test_protocol: Biochemical in vitro assay using fluorescence readout (TPH1 inhibition)
run_conditions: human TPH1, fluorescence readout
pIC50: −log10 of the molar value.
attribute_measured: pIC50

compound: CCc1nc(NS(C)(=O)=O)ccc1OCC(=O)N1CCc2nc3sc(C)nn3c2C1c1sccc1F (stereo not drawn)
measured_target: UniProtKB P17752
attribute_measured: pIC50
recorded_number: 8.15
//
compound: COc1ccc(C2c3c(nc4sccn34)CCN2C(=O)COc2ccc(Cl)cc2Cl)cc1OC (stereo not drawn)
measured_target: UniProtKB P17752
attribute_measured: pIC50
recorded_number: 8.15
//
compound: Cc1nn2c3c(nc2s1)CCN(C(=O)COc1ccc(N(C)C)nc1C)C3c1ccc(C2CC2)cc1F (stereo not drawn)
measured_target: UniProtKB P17752
attribute_measured: pIC50
recorded_number: 8.22
//
compound: Cc1nn2c3c(nc2s1)CCN(C(=O)COc1ccc(CN2CCOCC2)nc1Cl)C3c1ccc(Cl)cc1F (stereo not drawn)
measured_target: UniProtKB P17752
attribute_measured: pIC50
recorded_number: 8.05
//
compound: CCc1ncccc1OCC(=O)N1CCc2nc3sc(C)nn3c2C1c1cc(CN(C)C)cs1 (stereo not drawn)
measured_target: UniProtKB P17752
attribute_measured: pIC50
recorded_number: 6.85
//
compound: Cc1cnc(C2c3c(nc4sc(C)nn34)CCN2C(=O)COc2ccc(C(F)(F)F)nc2Cl)c(F)c1 (stereo not drawn)
measured_target: UniProtKB P17752
attribute_measured: pIC50
recorded_number: 7.68
//
compound: Cc1nn2c3c(nc2s1)CCN(C(=O)COc1ccc(N2CCOCC2)nc1Cl)C3c1cc(C(C)(C)O)cs1 (stereo not drawn)
measured_target: UniProtKB P17752
attribute_measured: pIC50
recorded_number: 7.92
//
compound: CCc1cc(F)ccc1OCC(=O)N1CCc2nc3sccn3c2C1c1ccc(C)cc1F (stereo not drawn)
measured_target: UniProtKB P17752
attribute_measured: pIC50
recorded_number: 8.22
//
compound: Cc1nn2c3c(nc2s1)CCN(C(=O)COc1ccc(NS(C)(=O)=O)nc1Cl)C3c1sccc1F (stereo not drawn)
measured_target: UniProtKB P17752
attribute_measured: pIC50
recorded_number: 8.15

----------
# Lookup of reported IC50 keyed by entry
measured_target: human TPH1 (Homo sapiens (Human))
Sequence (P17752 whole entry): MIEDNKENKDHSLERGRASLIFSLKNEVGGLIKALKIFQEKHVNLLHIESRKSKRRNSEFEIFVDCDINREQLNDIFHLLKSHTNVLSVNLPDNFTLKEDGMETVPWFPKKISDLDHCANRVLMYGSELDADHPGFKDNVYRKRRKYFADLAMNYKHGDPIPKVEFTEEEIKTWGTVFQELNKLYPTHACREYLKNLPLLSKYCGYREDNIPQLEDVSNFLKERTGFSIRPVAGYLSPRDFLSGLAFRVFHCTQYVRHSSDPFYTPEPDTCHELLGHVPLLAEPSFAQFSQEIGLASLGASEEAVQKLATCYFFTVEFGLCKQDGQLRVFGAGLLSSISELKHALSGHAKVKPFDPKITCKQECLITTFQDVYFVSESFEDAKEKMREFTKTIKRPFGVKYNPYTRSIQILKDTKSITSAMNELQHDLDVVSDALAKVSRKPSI
test_protocol: Biochemical in vitro assay using fluorescence readout (TPH1 inhibition)
run_conditions: human TPH1, fluorescence readout

molecule: Cc1ccccc1OCC(=O)N1CCc2nc3sccn3c2C1c1cnn(-c2ccccc2)c1 (stereo not drawn)
uom: nM
IC50: 236
//
molecule: CCc1nc(NS(C)(=O)=O)ccc1OCC(=O)N1CCc2nc3sc(C(F)(F)F)nn3c2C1c1ccc(C)cc1F (stereo not drawn)
uom: nM
IC50: 28
//
molecule: CNC(=O)c1ccc(OCC(=O)N2CCc3nc4sc(C)nn4c3C2c2sccc2F)c(Cl)n1 (stereo not drawn)
uom: nM
IC50: 9
//
molecule: Cc1nn2c3c(nc2s1)CCN(C(=O)COc1ccc(NS(C)(=O)=O)nc1Cl)C3c1ccc(C)c(F)c1F (stereo not drawn)
uom: nM
IC50: 34
//
molecule: Cc1ccc(C2c3c(nc4sc(CF)nn34)CCN2C(=O)COc2ccc(NS(C)(=O)=O)nc2Cl)c(F)c1 (stereo not drawn)
uom: nM
IC50: 8
//
molecule: Cc1nn2c3c(nc2s1)CCN(C(=O)COc1ccc(N(C)CC(F)(F)F)nc1Cl)C3c1cc(CN(C)C)cs1 (stereo not drawn)
uom: nM
IC50: 25
//
molecule: Cc1nn2c3c(nc2s1)CCN(C(=O)COc1ccc(N2CCOCC2)cc1Cl)C3c1cnc(C2CC2)nc1C (stereo not drawn)
uom: nM
IC50: 18
//
molecule: CCc1nc(NS(C)(=O)=O)ccc1OCC(=O)N1CCc2nc3sc(C(F)(F)F)nn3c2C1c1ccc(Cl)cc1F (stereo not drawn)
uom: nM
IC50: 32
//
molecule: O=C(COc1ccc(-c2ncco2)nc1Cl)N1CCc2nc3sc(C4CC4)nn3c2C1c1ccc(Cl)cc1F (stereo not drawn)
uom: nM
IC50: 13
//
molecule: O=C(COc1ccc2ccncc2c1)N1CCc2nc3sccn3c2C1c1nc2ccccc2s1 (stereo not drawn)
uom: nM
IC50: 12
//
molecule: CCc1nc(NS(C)(=O)=O)ccc1OCC(=O)N1CCc2nc3sc(C)nn3c2C1c1cc(F)c(C)cc1F (stereo not drawn)
uom: nM
IC50: 25
//
molecule: Cc1nn2c3c(nc2s1)CCN(C(=O)COc1ccc(N2CCOCC2)nc1Cl)C3c1csc(C2OCCO2)c1 (stereo not drawn)
uom: nM
IC50: 13
//
molecule: CCc1nc(NS(C)(=O)=O)ccc1OCC(=O)N1CCc2nc3sc(C(F)(F)F)nn3c2C1c1sc(C)nc1C (stereo not drawn)
uom: nM
IC50: 27
//
molecule: CNC(=O)c1ccc(OCC(=O)N2CCc3nc4sc(C)nn4c3C2c2ncccc2F)c(Cl)n1 (stereo not drawn)
uom: nM
IC50: 29
//
molecule: COC(=O)c1ccc(C2c3c(nc4sc(C)nn34)CCN2C(=O)COc2ccc(N3CCOCC3)nc2Cl)o1 (stereo not drawn)
uom: nM
IC50: 10
//
molecule: Cc1nn2c3c(nc2s1)CCN(C(=O)COc1ccc(N2CCOCC2)cc1Cl)C3c1c(C)noc1C (stereo not drawn)
uom: nM
IC50: 22
//
molecule: Cc1nn2c3c(nc2s1)CCN(C(=O)COc1ccc(C(=O)N(C)C)nc1Cl)[C@H]3c1sc(C(=O)N(C)C)cc1F
uom: nM
IC50: 4
//
molecule: O=C(COc1cccc(C(F)(F)F)c1Cl)N1CCc2nc3sccn3c2C1c1cnn(-c2ccccc2)c1 (stereo not drawn)
uom: nM
IC50: 75
//
molecule: Cc1nn2c3c(nc2s1)CCN(C(=O)COc1ccc(N2CC(F)(F)C2)nc1Cl)C3c1ncc(Cl)cc1F (stereo not drawn)
uom: nM
IC50: 4
//
molecule: Cc1cc(Cl)ccc1OCC(=O)N1CCc2nc3sccn3c2C1c1cccnc1F (stereo not drawn)
uom: nM
IC50: 26
//
molecule: O=C(COc1ccc(-c2ncco2)nc1Cl)N1CCc2nc3scnn3c2C1c1ccc(Cl)cc1F (stereo not drawn)
uom: nM
IC50: 8
